Kindly supply the reported pEC50 values for the records listed here.
# tested target: Peroxisome proliferator-activated receptor gamma (Homo sapiens, UniProt P37231)
# Sequence (P37231 whole entry): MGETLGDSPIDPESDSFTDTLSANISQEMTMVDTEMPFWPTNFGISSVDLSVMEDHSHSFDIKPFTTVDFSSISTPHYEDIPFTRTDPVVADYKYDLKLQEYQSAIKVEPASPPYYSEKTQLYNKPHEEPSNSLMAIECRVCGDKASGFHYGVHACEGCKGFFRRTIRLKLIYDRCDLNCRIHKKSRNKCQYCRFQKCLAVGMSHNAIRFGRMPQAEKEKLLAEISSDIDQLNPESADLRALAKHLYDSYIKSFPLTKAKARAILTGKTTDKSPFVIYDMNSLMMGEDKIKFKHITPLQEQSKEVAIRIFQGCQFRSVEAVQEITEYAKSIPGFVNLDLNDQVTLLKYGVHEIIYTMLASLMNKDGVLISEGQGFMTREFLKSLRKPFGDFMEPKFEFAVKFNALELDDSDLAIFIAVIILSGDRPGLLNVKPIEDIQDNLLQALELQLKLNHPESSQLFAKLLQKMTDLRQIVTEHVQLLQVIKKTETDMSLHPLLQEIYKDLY
# test protocol: Agonist activity at human PPARgamma in human U2OS cells by cell based transactivation assay
# Assay type: functional
One number for each entry, as −log10 of the molar value.

Past entries and their recorded results:
>>> df
                              smiles_string                             tested_target  observed_result
0  COC(=O)Cc1c(C)n(C(=O)c2ccc(Cl)cc2)c2ccc(OCCc3nc(-c4ccc(-c5ccccc5)cc4)oc3C)cc12  Peroxisome proliferator-activated receptor gamma (Homo sapiens, UniProt P37231)             7.70
1  Cc1oc(-c2ccc(-c3ccccc3)cc2)nc1CCOc1ccc2c(c1)c(CC(=O)O)c(C)n2C(=O)c1ccc(Cl)cc1  Peroxisome proliferator-activated receptor gamma (Homo sapiens, UniProt P37231)             7.40

Continue with the next compound.
(Q) Could you share which pEC50 value was measured for COC(=O)Cc1c(C)n(C(=O)c2ccc(Cl)cc2)c2ccc(OCCc3nc(-c4ccccc4)oc3C)cc12 ?
(A) 6.21
